- assay procedure: first dissolution test in DMSO or water
- particulars: first dissolution test; amount for a 3M solution in 0.5 mL; water, up to 15000 μL
assay readout: Total volume of water for dissolving the p-TSA derivatives (µL)
One number for each entry, in µL.

Answered cases to consult:
Cc1ccc(S(=O)(=O)NC2CCNCC2)cc1.Cl: 5000
Cc1ccc(S(=O)(=O)N2CCC(CN)CC2)cc1.Cl: 3000

// switching to the query molecule
Give me measured Total volume of water for dissolving the p-TSA derivatives, please, for this molecule: "Cc1ccc(S(=O)(=O)NCCS(=O)(=O)O)cc1"
10000

###

- Tested on: human liver cancer cell lines Hep3B
- assay procedure: SRB growth inhibition of liver cancer cells
- Type: cell-based
- particulars: Homo sapiens, Hep3B, 48 h, derivative dissolved in DMSO; 48 hours; SRB; read-out: IC50 of Hep3B in DMSO
assay readout: pIC50
Numbers only, as −log10 of the molar value.

Answered cases to consult:
Cc1ccc(S(=O)(=O)N[C@@H](C)CO)cc1 [PTSA026]: 2.41
Cc1ccc(S(=O)(=O)N2CC(=O)C2)cc1 [PTSA066]: 3.13
Cc1ccc(S(=O)(=O)NCC(=O)O)cc1 [PTSA044]: 2.04
Cc1ccc(S(=O)(=O)N2CCC(O)C2)cc1 (centres unmarked) [PTSA036]: 2.47

Could you tell me pIC50 for each of these compounds? They are listed below.
1. Cc1ccc(S(=O)(=O)NCC(C)O)cc1 (centres unmarked) [PTSA024]
2. Cc1ccc(S(=O)(=O)NC(CO)(CO)CO)cc1 [PTSA031]
3. Cc1ccc(S(=O)(=O)NC(C)CO)cc1 (centres unmarked) [PTSA025]
4. Cc1ccc(S(=O)(=O)N2CCC(CN)CC2)cc1.Cl [PTSA055]

[2.42, 2.38, 2.45, 3.22]

Could you tell me pIC50 for each of these compounds? They are listed below.
1. Cc1ccc(S(=O)(=O)NC[C@@H](O)CO)cc1 [PTSA027]
2. CCOC(=O)NS(=O)(=O)c1ccc(C)cc1 [PTSA014]

1. 2.39
2. 2.34

This collection of values is drawn from patent US10485773B2.
